# TARGET UNDER TEST: Notch receptor (human)
# ASSAY INFO: cell-based or functional assay
MEASURE: IC50 (ng Ab/mL), MTS viability of MDA-MB-468/hNotch cells (repeat 2)

- BINDER: "Notch-75-v1913-hG1-(C)_mcValCitPABC-#112 (antibody, human IgG1, kappa, V domains shown, drug-linker mcValCitPABC-#112 on cysteine (C), positions not given; drug-linker mcValCitPABC-#112 on cysteine (C), positions not given; DAR 4.2 per antibody) VH: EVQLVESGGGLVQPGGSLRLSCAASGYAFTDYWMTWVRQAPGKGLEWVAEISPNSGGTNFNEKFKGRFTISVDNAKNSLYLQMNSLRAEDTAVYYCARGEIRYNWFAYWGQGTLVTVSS VL: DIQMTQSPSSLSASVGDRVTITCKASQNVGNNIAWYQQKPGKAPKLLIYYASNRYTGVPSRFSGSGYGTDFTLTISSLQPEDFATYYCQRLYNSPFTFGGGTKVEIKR"
  OBSERVED MEASUREMENT: "25 ng Ab/mL"
